These measurements were taken from ChEMBL document CHEMBL4038320.

# TESTED_ON: Rhodopsin kinase GRK7 (Homo sapiens, UniProt Q8WTQ7)
# Sequence (Q8WTQ7 whole entry): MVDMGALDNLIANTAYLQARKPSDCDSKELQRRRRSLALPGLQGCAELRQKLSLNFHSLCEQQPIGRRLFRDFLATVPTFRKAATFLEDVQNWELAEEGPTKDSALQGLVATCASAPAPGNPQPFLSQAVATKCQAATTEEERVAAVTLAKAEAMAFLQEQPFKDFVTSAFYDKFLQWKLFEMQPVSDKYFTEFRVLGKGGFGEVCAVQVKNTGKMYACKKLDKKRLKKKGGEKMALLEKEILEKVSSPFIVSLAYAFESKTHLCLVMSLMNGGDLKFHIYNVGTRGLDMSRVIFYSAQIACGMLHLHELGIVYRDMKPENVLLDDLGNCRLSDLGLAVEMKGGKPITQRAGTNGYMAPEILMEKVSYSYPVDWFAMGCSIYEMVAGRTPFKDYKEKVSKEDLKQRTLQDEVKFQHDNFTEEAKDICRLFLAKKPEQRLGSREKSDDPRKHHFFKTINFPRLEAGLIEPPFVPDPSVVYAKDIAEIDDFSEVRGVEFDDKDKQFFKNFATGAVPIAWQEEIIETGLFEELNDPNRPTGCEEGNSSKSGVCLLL
# ASSAY_REMARKS: Inhibition of recombinant human full length GST-tagged GRK7 expressed in baculovirus using ulight topo2alpha as substrate preincubated for 60 mins followed by substrate addition measured after 10 mins by Lance TR-FRET assay
RECORDED_METRIC: IC50 (µM)

Cn1c(CNc2cccc(C(=O)NCc3ccccc3C(F)(F)F)c2)nnc1-c1ccncc1: 25

P = O=C(NCc1ccccc1C(F)(F)F)c1cccc(NCc2nnc3n2CCOc2cnccc2-3)c1
Q = Cc1c(-c2ccncc2)n[nH]c1CNc1cccc(C(=O)NCc2ccccc2)c1
R = O=C(NCc1ccccc1)c1cccc(NCc2nc(-c3ccncc3)n[nH]2)c1
// smallest IC50 at index 0, largest at the end Output spec: labels arranged per the requested ranking.
P, R, Q

---

# TESTED_ON: Rho-associated protein kinase 2 (Homo sapiens)
# ASSAY_REMARKS: Inhibition of recombinant human N-terminal GST-tagged ROCK2 catalytic domain (1 to 553 residues) expressed in baculovirus expression system using STK 2-biotin as substrate measured after 60 mins by HTRF/TR-FRET assay
RECORDED_METRIC: IC50 (nM)

Reference set (3 entries):
Clc1cccc(OCc2n[nH]c(-c3ccncc3)n2)c1: 1700
CCCn1c(CNc2cccc(C(=O)NCc3ccccc3)c2)nnc1-c1ccncc1: 110
COc1cccc(NCC(=O)N/N=C2\CCCc3cnccc32)c1: 390

a = CNC(=O)c1cccc(NCc2nc(-c3ccncc3)n[nH]2)c1
b = Clc1cccc(NCc2nc(-c3ccncc3)n[nH]2)c1
When their IC50 values are compared, which is larger, a or b ? Select an item and report its label.
b
(b: 380 nM, a: 220 nM)

---

# TESTED_ON: UniProt:P08684
# ASSAY_REMARKS: Inhibition of CYP3A4 (unknown origin) at 10 uM
# Assay type: ADME
RECORDED_METRIC: inhibition at 10 µM (%)

O=C(Cc1ccccc1)Nc1cc(NCc2nc(-c3ccncc3)n[nH]2)ccc1Cl: 90
c1ccc(CCOc2cccc(NCc3nc(-c4ccncc4)n[nH]3)c2)cc1: 96
O=C(NCc1ccccc1)c1cccc(NCc2cc(-c3ccncc3)no2)c1: 92

1 = c1ccc(CNCc2nc(-c3ccncc3)n[nH]2)cc1
2 = Cn1c(CNc2cccc(C(=O)NCc3ccccc3C(F)(F)F)c2)nnc1-c1ccncc1
When their inhibition at 10 µM values are compared, which is larger, 1 or 2 ? Select an item and report its label.
1

a = Cc1cnccc1-c1n[nH]c(CNc2cccc(C(=O)NCc3ccccc3)c2)n1
b = Cn1c(CNc2cccc(C(=O)NCc3ccc(C(F)(F)F)cc3)c2)nnc1-c1ccncc1
Of a and b , which shows the smaller inhibition at 10 µM value? Select an item and report its label.
b

P = COc1cccc(CNC(=O)c2cccc(NCc3nnc(-c4ccncc4)[nH]3)c2)c1
Q = Cn1c(CNc2cccc(C(=O)NCc3ccccc3C(F)(F)F)c2)nnc1-c1ccncn1
Of P and Q , which shows the smaller inhibition at 10 µM value? Select an item and report its label.
Q
(Q: 63%, P: 95%)

---

# TESTED_ON: Rho-associated protein kinase 2 (Homo sapiens)
# ASSAY_REMARKS: Inhibition of recombinant human N-terminal GST-tagged ROCK2 catalytic domain (1 to 553 residues) expressed in baculovirus expression system using STK 2-biotin as substrate measured after 60 mins by HTRF/TR-FRET assay
pIC50: −log10 of the molar value.
RECORDED_METRIC: pIC50

COc1ccc(NCC(=O)N/N=C/c2ccncc2)cc1: 5.43
O=C(NCc1c(F)cccc1F)c1cccc(NCc2nnc3n2CCOc2cnccc2-3)c1: 6.72
O=C(NCc1ccccc1)c1cccc(NCc2c[nH]c(-c3ccncc3)n2)c1: 6.80

I = O=C(NCc1ccccc1)c1cccc(NCc2nnc(-c3ccncc3)n2Cc2ccccc2)c1
II = COc1cccc(NCc2nc(-c3ccncc3)n[nH]2)c1
III = O=C(NCc1ccccc1C(F)(F)F)c1cccc(NCc2nnc3n2CCOc2cnccc2-3)c1
IV = Cc1cnccc1-c1n[nH]c(CNc2cccc(C(=O)NCc3ccccc3)c2)n1
Order field: pIC50 | Direction: descending (largest first) Output spec: labels arranged per the requested ranking.
III, IV, II, I
(III: 7.31, IV: 7.03, II: 6.14, I: 5.49)

---

# TESTED_ON: Rho-associated protein kinase 2 (Homo sapiens, UniProt O75116)
# Sequence (O75116 whole entry, the tested form may be a part): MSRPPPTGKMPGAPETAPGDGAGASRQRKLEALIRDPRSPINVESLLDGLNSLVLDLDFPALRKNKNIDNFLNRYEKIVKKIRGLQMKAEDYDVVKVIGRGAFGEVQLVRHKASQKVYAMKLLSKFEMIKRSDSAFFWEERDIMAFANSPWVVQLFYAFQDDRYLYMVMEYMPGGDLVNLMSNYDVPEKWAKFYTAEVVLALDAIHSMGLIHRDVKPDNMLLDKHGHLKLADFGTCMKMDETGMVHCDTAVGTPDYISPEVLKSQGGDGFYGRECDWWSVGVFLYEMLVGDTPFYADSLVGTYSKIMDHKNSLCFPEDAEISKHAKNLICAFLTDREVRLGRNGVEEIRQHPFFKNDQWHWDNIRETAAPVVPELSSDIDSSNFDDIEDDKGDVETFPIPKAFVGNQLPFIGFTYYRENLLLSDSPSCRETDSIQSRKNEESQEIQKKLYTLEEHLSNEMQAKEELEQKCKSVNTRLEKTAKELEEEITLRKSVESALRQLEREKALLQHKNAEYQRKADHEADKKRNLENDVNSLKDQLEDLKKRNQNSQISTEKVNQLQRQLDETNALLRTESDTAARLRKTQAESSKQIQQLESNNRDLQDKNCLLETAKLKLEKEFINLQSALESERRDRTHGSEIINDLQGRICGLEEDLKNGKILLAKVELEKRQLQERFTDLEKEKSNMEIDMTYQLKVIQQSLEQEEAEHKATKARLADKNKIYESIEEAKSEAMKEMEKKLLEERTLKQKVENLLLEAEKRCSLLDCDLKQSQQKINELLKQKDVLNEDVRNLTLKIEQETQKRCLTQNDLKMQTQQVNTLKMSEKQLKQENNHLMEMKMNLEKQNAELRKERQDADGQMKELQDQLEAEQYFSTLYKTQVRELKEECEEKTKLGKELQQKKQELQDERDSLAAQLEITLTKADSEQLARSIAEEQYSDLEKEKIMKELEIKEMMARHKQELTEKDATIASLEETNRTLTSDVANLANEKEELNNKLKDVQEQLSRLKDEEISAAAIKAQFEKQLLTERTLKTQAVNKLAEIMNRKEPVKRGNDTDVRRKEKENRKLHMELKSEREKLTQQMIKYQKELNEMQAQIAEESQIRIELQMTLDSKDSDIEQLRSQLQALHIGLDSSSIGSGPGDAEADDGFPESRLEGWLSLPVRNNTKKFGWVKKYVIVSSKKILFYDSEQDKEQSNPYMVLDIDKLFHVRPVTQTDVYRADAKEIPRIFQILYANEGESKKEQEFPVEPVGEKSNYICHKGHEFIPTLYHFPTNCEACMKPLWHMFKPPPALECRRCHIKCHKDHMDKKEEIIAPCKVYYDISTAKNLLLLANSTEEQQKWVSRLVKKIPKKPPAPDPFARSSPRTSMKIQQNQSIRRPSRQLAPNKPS
# ASSAY_REMARKS: Inhibition of recombinant human N-terminal GST-tagged ROCK2 catalytic domain (1 to 553 residues) expressed in baculovirus expression system using STK 2-biotin as substrate measured after 60 mins by HTRF/TR-FRET assay
pIC50: −log10 of the molar value.
RECORDED_METRIC: pIC50

I = O=C(CNc1cccc(C(=O)NCc2ccccc2)c1)N/N=C1\CCCc2cnccc21
II = O=C(NCc1ccccc1)c1cccc(NCc2nc(-c3ccncc3)c[nH]2)c1
III = CCCn1c(CNc2cccc(C(=O)NCc3c(F)cccc3F)c2)nnc1-c1ccncn1
IV = COc1ccccc1NCc1nc(-c2ccncc2)n[nH]1
V = Clc1ccc(NCCc2nc(-c3ccncc3)n[nH]2)cc1
// ranking: key=pIC50, reverse=True Output spec: labels arranged per the requested ranking.
II, I, III, V, IV
(II: 8.14, I: 7.24, III: 6.72, V: 6.05, IV: 5.74)

---

# TESTED_ON: CYP3A4 (Homo sapiens)
# Sequence (P08684 whole entry): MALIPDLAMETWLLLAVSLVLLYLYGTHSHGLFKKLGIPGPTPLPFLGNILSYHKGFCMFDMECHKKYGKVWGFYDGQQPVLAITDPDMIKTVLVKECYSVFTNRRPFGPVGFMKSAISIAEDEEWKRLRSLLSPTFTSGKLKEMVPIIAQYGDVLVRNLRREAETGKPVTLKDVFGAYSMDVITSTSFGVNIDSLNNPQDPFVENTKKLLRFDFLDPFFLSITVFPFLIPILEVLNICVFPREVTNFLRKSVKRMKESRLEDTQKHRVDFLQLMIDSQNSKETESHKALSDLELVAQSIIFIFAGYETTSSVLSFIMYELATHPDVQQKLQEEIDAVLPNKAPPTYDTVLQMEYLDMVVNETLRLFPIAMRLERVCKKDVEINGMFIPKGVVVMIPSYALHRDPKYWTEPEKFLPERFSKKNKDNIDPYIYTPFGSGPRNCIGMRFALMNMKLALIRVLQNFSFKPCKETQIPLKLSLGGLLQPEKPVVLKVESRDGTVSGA
# ASSAY_REMARKS: Inhibition of CYP3A4 (unknown origin) at 10 uM
# Assay type: ADME
RECORDED_METRIC: inhibition at 10 µM (%)

1 = CC(=O)Nc1cc(NCc2nc(-c3ccncc3)n[nH]2)ccc1Cl
2 = O=C(NCc1ccccc1)c1cccc(NCc2nnc(-c3ccncc3)o2)c1
When their inhibition at 10 µM values are compared, which is larger, 1 or 2 ? Select an item and report its label.
1

---

# TESTED_ON: UniProt:O75116
# ASSAY_REMARKS: Inhibition of recombinant human N-terminal GST-tagged ROCK2 catalytic domain (1 to 553 residues) expressed in baculovirus expression system using STK 2-biotin as substrate measured after 60 mins by HTRF/TR-FRET assay
RECORDED_METRIC: IC50 (µM)

Reference set (4 entries):
O=C(NCc1ccccc1)Nc1cccc(NCc2nc(-c3ccncc3)n[nH]2)c1: 0.03
Clc1ccc(CNc2nc(-c3ccncc3)n[nH]2)cc1: 0.27
c1ccc(CCOc2cccc(NCc3nc(-c4ccncc4)n[nH]3)c2)cc1: 2.7
O=C(CNc1ccccc1)N/N=C1\CCCc2cnccc21: 1.8

I = CN(Cc1ccccc1)C(=O)c1cccc(NCc2nc(-c3ccncc3)n[nH]2)c1
II = O=C(NCc1ccccc1)c1cccc(NCc2ccn(-c3ccncc3)c2)c1
III = CCn1c(CNc2cccc(C(=O)NCc3ccccc3)c2)nnc1-c1ccncc1
IV = c1ccc(NCc2nc(-c3ccncc3)n[nH]2)cc1
V = Cc1c(-c2ccncc2)n[nH]c1CNc1cccc(C(=O)NCc2ccccc2)c1
// smallest IC50 at index 0, largest at the end Output spec: labels arranged per the requested ranking.
V, III, II, IV, I

---

# TESTED_ON: Rho-associated protein kinase 2 (Homo sapiens)
# ASSAY_REMARKS: Inhibition of recombinant human N-terminal GST-tagged ROCK2 catalytic domain (1 to 553 residues) expressed in baculovirus expression system using STK 2-biotin as substrate measured after 60 mins by HTRF/TR-FRET assay
pIC50: −log10 of the molar value.
RECORDED_METRIC: pIC50

Reference set (2 entries):
Clc1ccccc1NCc1nc(-c2ccncc2)n[nH]1: 5.77
NS(=O)(=O)c1ccc(NCc2nc(-c3ccncc3)n[nH]2)cc1: 6.44

a = Clc1ccc(CSc2nc(-c3ccncc3)n[nH]2)cc1
b = Cn1c(CNc2cccc(C(=O)NCc3ccc(C(F)(F)F)cc3)c2)nnc1-c1ccncc1
c = O=C(NCc1ccccc1C(F)(F)F)c1cccc(NCc2nnc(-c3ccncc3)n2CCO)c1
Order field: pIC50 | Direction: descending (largest first) Output spec: labels arranged per the requested ranking.
c, b, a
(c: 6.49, b: 6.21, a: 5.72)

a = NC(=O)OCc1cnccc1-c1n[nH]c(CNc2cccc(C(=O)NCc3ccccc3)c2)n1
b = CC(C)n1c(CNc2cccc(C(=O)NCc3ccccc3)c2)nnc1-c1ccncc1
c = O=S(=O)(NCc1ccccc1)c1cccc(NCc2nc(-c3ccncc3)n[nH]2)c1
d = NS(=O)(=O)c1cccc(NCc2nc(-c3ccncc3)n[nH]2)c1
Order field: pIC50 | Direction: descending (largest first) Output spec: labels arranged per the requested ranking.
c, d, b, a
(c: 7.01, d: 6.80, b: 6.59, a: 5.64)

---

# TESTED_ON: G protein-coupled receptor kinase 3 (Homo sapiens, UniProt P35626)
# Sequence (P35626 whole entry): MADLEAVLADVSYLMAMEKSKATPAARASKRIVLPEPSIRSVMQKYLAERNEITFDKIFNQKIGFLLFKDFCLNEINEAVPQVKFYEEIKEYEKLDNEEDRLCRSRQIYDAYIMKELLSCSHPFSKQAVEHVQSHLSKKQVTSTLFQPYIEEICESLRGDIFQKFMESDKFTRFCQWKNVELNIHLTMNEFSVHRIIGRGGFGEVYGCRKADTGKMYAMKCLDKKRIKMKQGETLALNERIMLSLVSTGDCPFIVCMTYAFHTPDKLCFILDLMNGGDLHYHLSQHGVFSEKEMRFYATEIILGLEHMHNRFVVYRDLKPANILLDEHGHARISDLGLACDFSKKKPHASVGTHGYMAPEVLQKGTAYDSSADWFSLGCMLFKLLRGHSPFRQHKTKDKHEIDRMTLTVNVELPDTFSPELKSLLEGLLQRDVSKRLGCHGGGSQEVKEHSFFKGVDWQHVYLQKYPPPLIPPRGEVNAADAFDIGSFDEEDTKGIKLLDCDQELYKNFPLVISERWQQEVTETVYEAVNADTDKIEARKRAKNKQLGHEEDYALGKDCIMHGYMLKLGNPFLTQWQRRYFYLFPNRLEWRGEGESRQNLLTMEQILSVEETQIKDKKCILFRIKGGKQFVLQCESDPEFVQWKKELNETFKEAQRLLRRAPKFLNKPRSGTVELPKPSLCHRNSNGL
# ASSAY_REMARKS: Inhibition of recombinant human full length GST-tagged GRK3 expressed in baculovirus using ulight topo2alpha as substrate preincubated for 60 mins followed by substrate addition measured after 10 mins by Lance TR-FRET assay
pIC50: −log10 of the molar value.
RECORDED_METRIC: pIC50

Reference set (3 entries):
CNC(=O)c1cccc(NCc2nc(-c3ccncc3)n[nH]2)c1: 7.68
Cn1c(CNc2cccc(C(=O)NCc3ccccc3C(F)(F)F)c2)nnc1-c1ccncc1: 8.27
Cc1c(-c2ccncc2)n[nH]c1CNc1cccc(C(=O)NCc2ccccc2)c1: 8.37

a = O=C(NCc1ccccc1)c1cccc(NCc2nc(-c3ccncc3)n[nH]2)c1
b = CCn1c(CNc2cccc(C(=O)NCc3ccccc3)c2)nnc1-c1ccncc1
c = O=C(NCc1ccccc1C(F)(F)F)c1cccc(NCc2nnc3n2CCOc2cnccc2-3)c1
Order field: pIC50 | Direction: descending (largest first) Output spec: labels arranged per the requested ranking.
c, a, b
(c: 9.19, a: 8.74, b: 8.48)
